Cited source for all entries: patent US20240270821A1

Each item that follows carries a reported Relative cAMP EC50.
targetOrSystem: T1, human GIP receptor (human) (UniProt P48546)
T1 sequence (looked up): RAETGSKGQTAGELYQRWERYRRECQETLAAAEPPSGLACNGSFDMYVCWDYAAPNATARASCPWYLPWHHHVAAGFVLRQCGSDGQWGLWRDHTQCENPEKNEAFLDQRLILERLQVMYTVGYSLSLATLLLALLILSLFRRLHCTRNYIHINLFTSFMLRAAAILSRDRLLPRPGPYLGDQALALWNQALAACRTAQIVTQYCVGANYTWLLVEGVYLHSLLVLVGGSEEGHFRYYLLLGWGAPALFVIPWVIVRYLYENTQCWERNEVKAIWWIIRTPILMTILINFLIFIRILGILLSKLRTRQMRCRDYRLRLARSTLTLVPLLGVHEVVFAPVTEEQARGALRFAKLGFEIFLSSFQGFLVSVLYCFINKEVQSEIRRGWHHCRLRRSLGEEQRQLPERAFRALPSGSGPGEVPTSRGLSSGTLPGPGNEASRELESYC
assay: cell-based or functional assay
Give just the number in nM; leave the unit off.

Solved entries (count: 2):
Per the records, this binder ( YXQGTFTSDFSXXLDXKAQXAFIEXLLEGGPSSGAPPPGGSEE (Aib, Orn, αMeL, αMeY; acylated Lys; C-terminal amide; synthetic construct; SITE 2: note = 2-Aminoisobutyric Acid; SITE 12: note = L-ornithine; SITE 13: note = alpha-methyl-leucine; SITE 16: note = L-ornithine; SITE 17: note = Lysine is chemically modified through conjugation of the epsilon-amino group of the Lysine side chain with (gamma-Glu)2-CO-(CH2)) [Example 1049] ) has Relative cAMP EC50 equal to 0.24

Per the records, this binder ( YXQGTFTSDXSQXLDXKAQXAFIEYLIAXGPSSGEPPPSGSEE (non-natural residues, acylated Lys ((γGlu)2-C18 diacid), C-terminal amide; synthetic construct; SITE 2: note = 2-Aminoisobutyric Acid; SITE 10: note = 3-(4-Pyridyl)-L-alanine; SITE 13: note = alpha-methyl-leucine; SITE 16: note = L-ornithine; SITE 17: note = Lysine is chemically modified through conjugation of the epsilon-amino group of the Lysine side chain with (gamma-Gl)) [Example 1092] ) has Relative cAMP EC50 equal to 0.0648

In the following, a different binder is considered.
Per the records, this binder ( YXQGTXTSDYSILLDKKAQXAFIEYLEEGGPSSGAPPPSEG (synthetic construct; SITE 2: note = 2-Aminoisobutyric Acid; SITE 6: note = alpha-methyl-2-fluoro-L-phenylalanine; SITE 17: note = Lysine is chemically modified through conjugation of the epsilon-amino group of the Lysine side chain with (gamma-Glu)2-CO-(CH2)16-CO2H; SITE 20: note = 2-Aminoisobutyric) [Example 434] ) has Relative cAMP EC50 equal to 0.0226
